- experimental.protocol: Metabolite analysis in plasma, liver, and kidney (TLC)
- Format: in vivo, Crl:CD1(ICR) mice
- recorded.conditions: female, Crl:CD1(ICR), mouse, in vivo, Female; 2 h after [^14C]Epyrifenacil 1 mg/kg p.o. + Digoxin 200 mg/kg p.o.; read-out: Metabolite concentration, Liver
- From the text: Precoated silica gel 60 F254 chromatoplate (20 × 20 cm, 0.25‐ or 0.5‐mm layer thickness, Merck KGaA) was used for two‐dimensional thin layer chromatography (2D‐TLC) analysis. The solvent systems were ethyl formate/formic acid (95/5, v/v) for the first dimension, and ethyl acetate/acetic acid (95/5, v/v) for the second dimension. The radioactivity on the TLC plates was detected by autoradiography using an imaging plate processed with a fluoro‐image analyzer (FLA‐9500, GE Healthcare). […]
endpoint.label: concentration at 2 h (ng/g)
Provide the reading as a plain figure in ng/g.

concentration at 2 h measured on CN1C(=O)N(c2cc(Oc3cccnc3OCC(=O)O)c(Cl)cc2F)C(=O)CC1(O)C(F)(F)F (stereo not shown) = 291
